Tested on: COLO 205
ASSAY: NCI tumour cell line growth inhibition, 48 h
Activity calls are given as the source filed them. No stated cut-off is given here; in the data, active = GI50 up to about 1.1 µM and inactive = higher.
Your reply should match one of these outcome classes. true = active, false = inactive

Worked cases, answers included:
COc1cc2c(c(OC)c1OC)-c1ccc(SC)c(=O)cc1C(CC(=O)Oc1cccc(C#N)c1)C2 (stereo not given) = true
COC1=CC(=Nc2c(Cl)cc(Cl)cc2OC(=O)c2ccc([N+](=O)[O-])cc2)C=C(OC)C1=O = false
CCOC(=O)N/N=C/C1=NN(C(=O)OCC)[S+]([O-])C1C (stereo not given) = false
O=S1(=O)OCCOS(=O)(=O)C1Cc1nc2ccccc2[nH]1 = false

I'd appreciate the recorded outcome for CC(C)CCC(=O)c1ccoc1 from this test.
false

###

Test system: BT-549
ASSAY: NCI tumour cell line growth inhibition, 48 h
The source made the active and inactive calls. Cut-off read from the data, not from the text of the source: active = GI50 up to about 1.1 µM and inactive = higher.
Your reply should match one of these outcome classes. active, inactive

O=C(COc1ccc(OCC(=O)N/N=C/c2ccc(-c3ccc(Cl)cc3Cl)o2)c(Cl)c1)N/N=C/c1ccc(-c2ccc(Cl)cc2Cl)o1 = inactive
C=CCc1cc(-c2cc(CC=C)c(O)c(CN(CC)CC)c2)cc(CN(CC)CC)c1O = inactive
CC(C)(NC(=O)OCc1ccccc1)C(=O)OC(=O)C(C)(C)NC(=O)OCc1ccccc1 = inactive
O=C1C(Br)=C(C2=CC(=P(c3ccccc3)(c3ccccc3)c3ccccc3)C=C2)C(=O)C(Br)=C1C1=CC(=P(c2ccccc2)(c2ccccc2)c2ccccc2)C=C1 = inactive
CN(Nc1cc(=O)[nH]c(=O)[nH]1)c1ccccc1 = inactive

I'd appreciate the recorded outcome for O=C1c2cccc3cccc(c23)C(=O)N1CCCNCCCCNCCCNCCCN1C(=O)c2cccc3cccc(c23)C1=O from this test.
inactive

I'd appreciate the recorded outcome for Nc1nc(N)c2c(n1)NC(=O)c1c(c3ccccc3n1Cc1ccc(Cl)cc1)C2 from this test.
inactive

I'd appreciate the recorded outcome for O=C1C(Cl)=C(c2ccc([N+](=O)[O-])cc2)C(=O)c2c(O)cccc21 from this test.
active

###

Test system: MOLT-4
ASSAY: NCI tumour cell line growth inhibition, 48 h
Activity calls are given as the source filed them. Rule as the data show it: active = GI50 up to about 1.1 µM and inactive = higher.
MEASURED_ENDPOINT: GI50

Reference set, count: 4
C/N=C1\CC2c3cc(OC)c(OC)cc3CCN2C2=C1C(=O)CC(C)(C)C2 (stereo unspecified) = > 100 µM (inactive)
c1ccc2nn(C3CCCO3)nc2c1 (stereo unspecified) = > 100 µM (inactive)
CCC1c2[nH]c3ccccc3c2C[C@H]2C(=O)NC(CCC(=O)OC(C)(C)C)C(=O)N12 (stereo partly specified) = 35.3 µM (inactive)
O=C(Cc1ccc(Cl)c(Cl)c1)N(CCc1ccc(Cl)c(Cl)c1)CCN1CCCC1 = 1.34 µM (inactive)

// input: 2 compounds below; output: GI50 for each
1. COc1ccc(C2N(c3ccc(C)c(N=C=O)c3)C(=O)N3C(c4ccc(OC)cc4)N(c4ccc(C)c(N=C=O)c4)C(=O)N23)cc1 (stereo unspecified)
2. C=CCNC(=S)N1CC(C)C(=O)Nc2cc(Cl)ccc21 (stereo unspecified)

> 100 µM (inactive)
> 100 µM (inactive)

###

Tested on: A498
ASSAY: NCI tumour cell line growth inhibition, 48 h
Calls of active or inactive are those of the source. Rule as the data show it: active = GI50 up to about 1.1 µM and inactive = higher.
Your reply should match one of these outcome classes. Y = active, N = inactive

CCOC(=O)C1=C(C)N(NC(N)=O)C2(N)N(NC(N)=O)C(C)=C(C(=O)OCC)C12C(=O)OCC (stereo not drawn) = N
CC1(C)C(=O)c2ccccc2OC1N1CCN(C2Oc3ccccc3C(=O)C2(C)C)CC1 (stereo not drawn) = N
O=C(CCCN1CCC(Nc2ccc(F)cc2)(c2nnnn2C2CCCCC2)CC1)c1ccc(F)cc1 = N
Nc1ncc(CN2CCCC2)c(-c2ccccc2O)n1 = N
CCN(CC)C(=S)SS(=O)(=O)c1ccc([N+](=O)[O-])cc1 = N
CC#CC(=O)SCCNC(=O)CC = N

I'd appreciate the recorded outcome for CC(=O)NNc1nc(C)c(C(=O)NNC(=O)C(=O)Nc2ccc(C)cc2[N+](=O)[O-])s1 from this test.
N

I'd appreciate the recorded outcome for Cc1nc(-c2cccnc2)sc1C(=O)CC(=O)C(=O)Nc1cccc(NC(=O)C(=O)CC(=O)c2sc(-c3cccnc3)nc2C)n1 from this test.
N

I'd appreciate the recorded outcome for COC(=O)C1CC=C(SC(=O)c2ccccc2)N1C(=O)c1ccccc1 (stereo not drawn) from this test.
N

I'd appreciate the recorded outcome for COC(=O)[C@H](CC(C)C)NC(=O)[C@H](Cc1ccccc1)N1CC2C=CC1C2 (stereo partly drawn) from this test.
N

I'd appreciate the recorded outcome for Oc1cc(-c2ccc[nH]2)nc2cc3c(cc12)OCO3 from this test.
N

I'd appreciate the recorded outcome for Cc1c(/C=N/NC(=O)c2ccccc2)c(=O)n(-c2ccccc2)n1C from this test.
N

I'd appreciate the recorded outcome for O=C(O)/C(=C\c1ccccc1)Cc1ccccc1 from this test.
N

I'd appreciate the recorded outcome for CSCCCS/C1=C/CCCCCCCCCC1 from this test.
N

I'd appreciate the recorded outcome for N#Cc1c(-c2ccccc2)c(/C=N/c2ccc(Cl)cc2)c(=O)n2c1[nH]c1ccccc12 from this test.
N
